Sourced from paper PMC5916898

- tested.on: SP1 (Homo sapiens, UniProt P08047)
- Sequence (P08047 whole entry): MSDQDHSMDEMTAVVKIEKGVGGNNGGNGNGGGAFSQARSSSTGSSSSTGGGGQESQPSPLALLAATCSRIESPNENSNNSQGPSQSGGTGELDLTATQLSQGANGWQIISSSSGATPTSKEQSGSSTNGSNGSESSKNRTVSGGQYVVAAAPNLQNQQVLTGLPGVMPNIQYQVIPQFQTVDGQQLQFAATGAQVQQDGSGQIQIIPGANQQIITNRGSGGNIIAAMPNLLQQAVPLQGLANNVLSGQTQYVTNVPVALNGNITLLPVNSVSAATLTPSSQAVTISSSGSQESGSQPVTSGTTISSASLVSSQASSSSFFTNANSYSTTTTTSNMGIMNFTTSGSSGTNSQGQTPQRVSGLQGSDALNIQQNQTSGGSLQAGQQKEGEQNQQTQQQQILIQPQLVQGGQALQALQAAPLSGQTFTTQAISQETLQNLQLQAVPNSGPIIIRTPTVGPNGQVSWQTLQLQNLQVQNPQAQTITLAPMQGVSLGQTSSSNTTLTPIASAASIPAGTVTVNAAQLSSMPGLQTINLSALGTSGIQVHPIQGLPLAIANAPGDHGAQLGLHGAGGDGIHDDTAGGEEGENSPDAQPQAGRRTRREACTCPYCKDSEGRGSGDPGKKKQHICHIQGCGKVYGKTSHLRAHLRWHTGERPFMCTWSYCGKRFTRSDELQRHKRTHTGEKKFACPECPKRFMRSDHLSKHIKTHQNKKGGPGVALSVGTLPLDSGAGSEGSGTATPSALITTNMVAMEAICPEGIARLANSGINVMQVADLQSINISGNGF
- protocol.description: competition; 150 mM NaCl, 50 mM Tris pH 8, 0.25% NP-40, 1 mM TCEP; 4 C, 2 h; 100 ug HeLa nuclear lysate; free competitor against 200 nM immobilised SP/KLF wild-type
- test.context: protein: extract
assay.metric: IC50 (nM)
The reply should be a number in nM, with the unit left off.

Reported IC50, binder SP/KLF wild-type (dsDNA) DNA 1: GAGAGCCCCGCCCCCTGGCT DNA 2: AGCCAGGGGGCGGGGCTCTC : ____
192
